- System: human PBMCs
- testMethodNotes: Human PBMC cytokine response assay (IFN-γ and IFN-α in cell-free medium by ELISA), with or without cPLGA
- Assay type: cell-based
- details: Table 10; donor 28045
property: IFN-α (pg/mL)
Reply numerically in pg/mL, unit not repeated.

- substance: "5′-TCGTTTT-3′-HEG-5′-TCGTTTT-3′-HEG-5′-TCGTTTT-3′ [Compound C-41]"
  resultUnit: "pg/mL"
  IFN-α: 0
- substance: "5′-TGCTGC-3′-HEG-5′-AGCTTGC-3′-HEG-5′-AGATGAT-3′ [Compound M-1, reference compound]"
  resultUnit: "pg/mL"
  IFN-α: 2
- substance: "5′-TCGACGT-3′-HEG-5′-TCGACGT-3′-HEG-5′-TCGACGT-3′ [Compound C-51]"
  resultUnit: "pg/mL"
  IFN-α: 36
- substance: "5′-TCGTCG-3′-HEG-5′-TCGA-3′ [Compound C-40]"
  resultUnit: "pg/mL"
  IFN-α: 2
- substance: "5′-TCGTCGA-3′-HEG-5′-TCGTCGA-3′ [Compound C-39]"
  resultUnit: "pg/mL"
  IFN-α: 36
- substance: "5′-TCGTCGT-3′-HEG-5′-TGTCGTT-3′-HEG-5′-TGTCGTT-3′ [Compound C-47]"
  resultUnit: "pg/mL"
  IFN-α: 0
- substance: "5′-TCGTCGT-3′-HEG-5′-TCGTCGT-3′-HEG-5′-TCGTCGT-3′ [Compound C-42]"
  resultUnit: "pg/mL"
  IFN-α: 0
- substance: "5′-TCGAACG-3′-HEG-5′-TCGAACG-3′-HEG-5′-TCGAACG-3′ [Compound C-50]"
  resultUnit: "pg/mL"
  IFN-α: 35
- substance: "5′-TCGTCGA-3′-HEG-5′-ACGTTCG-3′-HEG-5′-AGATGAT-3′ [Compound C-8]"
  resultUnit: "pg/mL"
  IFN-α: 5
- substance: "5′-ACGTTCG-3′-HEG-5′-ACGTTCG-3′-HEG-5′-AGATGAT-3′ [Compound C-24]"
  resultUnit: "pg/mL"
  IFN-α: 0

Note: attention shifts to another entry.
[in] Need IFN-α of 5′-TTCGTTT-3′-HEG-5′-TTCGTTT-3′-HEG-5′-TTCGTTT-3′ [Compound C-46] , thanks.
[out] 3
